FYI, the data here is from patent US20190269784A1.

TARGET ENTITY: polo-box domain (PBD) of polo-like kinase 1 (PLK1) (UniProt P53350)
Sequence (P53350 367-603 limits assumed): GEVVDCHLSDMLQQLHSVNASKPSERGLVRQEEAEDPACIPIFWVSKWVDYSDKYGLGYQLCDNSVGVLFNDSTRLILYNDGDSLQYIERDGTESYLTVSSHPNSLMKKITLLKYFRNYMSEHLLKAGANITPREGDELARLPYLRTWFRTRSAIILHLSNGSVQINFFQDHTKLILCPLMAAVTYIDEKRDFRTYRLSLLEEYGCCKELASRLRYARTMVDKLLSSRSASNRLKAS
PROTOCOL TEXT: from FP IC50s; PLK1 PBD against PLK3 PBD
Square brackets hold non-standard residues; d marks the D form. Ends that are not written are not given here. * marks the point of attachment. Benzoyl(4-octyl) = CCCCCCCCc1ccc(C(=O)*)cc1; pT = C[C@@H](OP(=O)(O)O)[C@H](N)C(=O)O
Answer each item with its documented Selectivity Index.
Give bare numbers.

BINDER	Selectivity Index
{Benzoyl(4-octyl)}-S[pT]AI [Compound No. 15, 4-octylbenzamide N-capped S[pT]AI (SEQ ID NO: 13)]	1860

For every listed record, write down its Selectivity Index.
1. S[pT]AI (also: 4-octyl R1 group on C-terminus, 'C-terminal amidated octyl', terminal chemistry unclear) [Compound No. 17, 4-octyl S[pT]AI (SEQ ID NO: 13), R1 group on the C-terminal]
2. S[pT]AI (also: 4-nonyl R1 group on C-terminus, 'C-terminal amidated nonyl', terminal chemistry unclear) [Compound No. 18, 4-nonyl S[pT]AI (SEQ ID NO: 13), R1 group on the C-terminal]
3. {Benzoyl(4-octyl)}-S[pT]PL [Compound No. 16, 4-octyl S[pT]PL (SEQ ID NO: 14)]

stdout:
[79, 78, 2580]
